Cited source: ChEMBL document CHEMBL3813666

# PROTOCOL: Cytotoxicity activity against human rhabdomyosarcoma cells after 24 hrs by MTT assay
# Format: cell-based, Rhabdomyosarcoma cell
ASSAY_METRIC: CC50 at 24 h

- CN(C)C(=O)Oc1ccc2c(=O)n(Cc3cccc(NS(=O)(=O)NCCC#N)c3F)c(=O)oc2c1: > 100 µM
- CNS(=O)(=O)Nc1cccc(Cn2c(=O)oc3cc(OC(=O)N(C)C)ccc3c2=O)c1F: > 100 µM
- CNC(=O)c1cc(Oc2ccc(NC(=O)Nc3ccc(Cl)c(C(F)(F)F)c3)cc2)ccn1 [SORAFENIB]: 7.05 µM

====

List of IC50 tested on Serine/threonine-protein kinase B-raf (Homo sapiens, UniProt P15056, Y340D/Y341D).
Sequence (P15056 whole entry, looked up, stated change not applied): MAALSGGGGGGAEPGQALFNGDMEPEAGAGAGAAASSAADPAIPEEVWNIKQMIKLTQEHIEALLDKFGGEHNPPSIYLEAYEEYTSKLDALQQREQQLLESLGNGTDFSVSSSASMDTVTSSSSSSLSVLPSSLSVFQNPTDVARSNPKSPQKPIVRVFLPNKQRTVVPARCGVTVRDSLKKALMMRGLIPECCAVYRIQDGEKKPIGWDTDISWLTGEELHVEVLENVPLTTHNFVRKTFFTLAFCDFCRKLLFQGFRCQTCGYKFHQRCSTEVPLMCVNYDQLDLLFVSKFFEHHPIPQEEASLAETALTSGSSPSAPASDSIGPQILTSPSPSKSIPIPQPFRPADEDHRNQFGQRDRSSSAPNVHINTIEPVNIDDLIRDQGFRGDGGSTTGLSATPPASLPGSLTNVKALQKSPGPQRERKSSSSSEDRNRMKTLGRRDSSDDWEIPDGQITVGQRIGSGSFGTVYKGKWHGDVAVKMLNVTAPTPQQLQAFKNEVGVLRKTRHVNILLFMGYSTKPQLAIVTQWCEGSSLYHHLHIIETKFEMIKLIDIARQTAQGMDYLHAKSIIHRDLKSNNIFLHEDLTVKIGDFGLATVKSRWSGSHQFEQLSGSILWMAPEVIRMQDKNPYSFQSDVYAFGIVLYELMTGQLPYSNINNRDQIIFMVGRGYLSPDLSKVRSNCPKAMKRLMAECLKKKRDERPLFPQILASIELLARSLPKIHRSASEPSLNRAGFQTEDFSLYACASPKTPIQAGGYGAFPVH
ASSAY_METRIC: IC50 (nM)

* CNS(=O)(=O)Nc1cccc(Cn2c(=O)oc3cc(OC(=O)N(C)C)ccc3c2=O)c1F | 55
* CCCC(=O)Oc1ccc2c(=O)n(Cc3cccc(NS(=O)(=O)NC)c3F)c(=O)oc2c1 | 1200
